Listed here are compounds together with their documented %-inhibition of IRAK1.
- system under test: panel of more than 300 wild-type and mutant kinases (313 kinase panel) (Homo sapiens, UniProt P51617)
- assay name: Kinase profiling in a biochemical assay panel (mobility shift assays and ELISA), %-inhibition at 1 μM; selectivity entropy
- condition description: kinase IRAK1; compound at 1 μM

Illustrative cases are given below, each with its answer.
compound: CCN(CC)CCNC(=O)c1c(C)[nH]c(/C=C2\C(=O)Nc3ccc(F)cc32)c1C [sunitinib]
reported metric: %-inhibition of IRAK1
meas value: 90%
//
compound: CS(=O)(=O)CCNCc1ccc(-c2ccc3ncnc(Nc4ccc(OCc5cccc(F)c5)c(Cl)c4)c3c2)o1 [lapatinib]
reported metric: %-inhibition of IRAK1
meas value: 3%

// next item, %-inhibition of IRAK1 requested
Quote %-inhibition of IRAK1 reported for COc1cc(Nc2c(C#N)cnc3cc(OCCCN4CCN(C)CC4)c(OC)cc23)c(Cl)cc1Cl [bosutinib] please.
12%
